Measured values drawn from a melting point compilation (Tetko et al.; mined from patent text by program, amines drawn as free bases though some values may be those of a salt) for this set.

Measured melting point values are reported for all entries that follow.

O=[N+]([O-])C/C=C/c1sc2ccc(Cl)cc2c1Cl: 143 to 146 °C
COC(=O)c1c(O)c2c([nH]c1=O)CCCCC2: > 255 °C
COc1ccc(C2=NN(C3CCN(C(C)=O)CC3)C(=O)CC2C)cc1OC (centres undefined): 149 to 152 °C

Inquiry: Can you share its melting point? I mean this molecule: O=C(O)c1ccc(-c2cc(O)c(SCCc3ccccc3)c(=O)o2)cc1
Reply text: 231 °C

Inquiry: Thanks! And O=C(O)C1=Cc2cc(-c3ccc(OC(F)(F)F)cc3)ccc2OCC1 ?
Reply text: 252 to 254 °C

Inquiry: Thanks! And COc1ccc(CC(N(C)S(=O)(=O)c2ccc(C)cc2)C(C)(C)C(=O)Cl)cc1 (centres undefined) ?
Reply text: 110 to 111 °C

Inquiry: Thanks! And CCN(CC1CCCC1)c1nc2ccccc2cc1CN(Cc1cc(C(F)(F)F)cc(C(F)(F)F)c1)C(N)=S ?
Reply text: 98 °C

Inquiry: Thanks! And COc1ccc(-c2ccc(-c3ccc(F)cc3)nc2-c2ccc(O)cc2)cc1 ?
Reply text: 143 to 145 °C

Inquiry: Thanks! And O=C(Nc1ccccc1Cl)C1CN(C(=O)Nc2ccc(C(F)(F)F)cc2)N=C1c1ccc(Cl)cc1 (centres undefined) ?
Reply text: > 200 °C

====

measuredMetric: melting point

Inquiry: Can you share its melting point? I mean this compound: CCCN(CC1CC1)c1nc(C)[nH]c2c(-c3ccc(Cl)cc3Cl)nc(C)c1-2
Reply text: 66 to 68 °C

Inquiry: Thanks! And CC1(C)CC(=C2CC(C)(C)NC(C)(C)C2)CC(C)(C)N1 ?
Reply text: 144 to 145 °C

Inquiry: Thanks! And COc1cc2c(c(C(C)(C)C)c1)OC(=O)C2=C1C(=O)Nc2c(Br)cc(Br)cc21 ?
Reply text: 303 to 314 °C

Inquiry: Thanks! And CCN1C(=O)Cc2cc(C=O)ccc21 ?
Reply text: 126 to 127 °C

Inquiry: Thanks! And COC(=O)[C@H]1[C@@H]2CC[C@@](NC(=O)OC(C)(C)C)(C(=O)O)[C@@H]21 ?
Reply text: 164 to 165 °C

====

measuredMetric: melting point

CCOC(=O)c1nc2ccc(N)cc2c(=O)[nH]1: 233 to 235 °C
Oc1cccc(Sc2ncccc2O)c1: 147 to 148 °C
CS(=O)(=O)c1ccc(-c2cnn(CC(F)(F)F)c(=O)c2Nc2ccc(F)cc2)cc1: 158 to 160 °C
COC(=O)NC(=O)Cc1nc(-c2cc(C(C)(C)C)c(O)c(C(C)(C)C)c2)oc1C: 125 to 127 °C
CCCc1c(OCCCS(=O)(=O)c2ccc(CC(=O)O)cn2)ccc(C(C)=O)c1O: 154 to 156 °C
CC(=O)Nc1c([N+](=O)[O-])cc(Br)c2c1CCN(C)C2: 190 to 192 °C
COc1ccccc1-c1c(N)c2ccc(Cl)cc2[nH]c1=O: 284 to 286 °C
CCn1ncc2c(NCc3ccccc3)c3ccc(OC)cc3nc21: 163 to 164 °C

Inquiry: Can you share its melting point? I mean this molecule: O=[N+]([O-])c1cnn2c1NCCC2
Reply text: 251 to 252 °C

Inquiry: Thanks! And CC1Cc2cccc(-c3ccccc3)c2C1=O (stereo not given) ?
Reply text: 81.5 to 83 °C

Inquiry: Thanks! And O=S(=O)(NCCc1ccc(Nc2nnn[nH]2)cc1)c1ccc(Cl)cc1 ?
Reply text: 148 to 150 °C

Inquiry: Thanks! And CC1Sc2nccn2C1(C)C(O)C=Cc1ccco1 (stereo not given) ?
Reply text: 149 to 150 °C

Inquiry: Thanks! And COc1cccc2nc(-c3ccc(C)cc3)cc(OCC(=O)N3CCOCC3)c12 ?
Reply text: 132 °C

====

Measured melting point values are reported for all entries that follow.

Reference set (10 entries):
COCc1cc(C(O)CNCCCCCCOCCc2ccc(OC)cc2)ccc1O (stereo unspecified): 97.5 to 98.5 °C
CC(C)C(=O)C(=CC(=O)c1ccc(Cl)cc1)n1cncn1: 128 to 130 °C
Oc1ccc(-c2ccc(C(F)(F)F)cc2)cn1: 178 to 182 °C
CN1CC(Cn2cccn2)CC2c3cccc4[nH]cc(c34)CC21 (stereo unspecified): 192 to 194 °C
CCCc1nnc2n1-c1sc(CC)cc1C(c1ccccc1Cl)=NC2NC(=O)c1ccc2ccccc2c1 (stereo unspecified): 226 to 227 °C
Cc1ccc(-c2c(NS(=O)(=O)c3ccc(C(C)(C)C)cc3)ncnc2OCCOc2ccc(C(C)O)cc2)cc1 (stereo unspecified): 176 to 178 °C
CC1(C)COc2cc(Cl)c(Cl)cc2C(O)(c2cccnc2)C1 (stereo unspecified): 166 °C
CCOC(=O)c1nc[nH]c1C(=O)OCC: 175 to 177 °C
CCOC(=O)C1CCn2c(cc3ccccc32)C1OC(C)=O (stereo unspecified): 98 to 100 °C
CCc1c(CCN2CCC(c3noc4cc(F)ccc34)CC2)sc2c1NC(=O)CCC2: 115 to 117 °C

Inquiry: Can you share its melting point? I mean this molecule: Cc1nc(O)c(C#N)c(C)c1Br
Reply text: 254 to 262 °C

Inquiry: Thanks! And CCOC(=O)C(Cl)=Cc1cccc([N+](=O)[O-])c1 ?
Reply text: 75 °C

Inquiry: Thanks! And O=C1C2C[C@H](O)CN2C(=O)N1c1ccc([N+](=O)[O-])c2ccccc12 (stereo partly specified) ?
Reply text: 246 to 248 °C

Inquiry: Thanks! And O=C1NC(=O)C(=Cc2ccc(OCc3cccc(Cl)c3)cc2)S1 ?
Reply text: 182 to 183 °C

Inquiry: Thanks! And CCOc1cc([C@@H](CC(=O)N(C)C)N2Cc3cccc(NCC(C)(C)C)c3C2=O)ccc1OC ?
Reply text: 111 to 113 °C

Inquiry: Thanks! And CCOC(=O)C1=CC(=O)C2(C(=O)c3ccc(OC)cc3)OC2O1 (stereo unspecified) ?
Reply text: 96 °C

Inquiry: Thanks! And COc1c(Cl)cc(F)c(I)c1F ?
Reply text: 62 to 64 °C

Inquiry: Thanks! And Cc1ccc(-c2cc[nH]c2CC[N+](=O)[O-])cc1 ?
Reply text: 81 to 82 °C

Inquiry: Thanks! And Clc1cccc(Nc2ncnc3[nH]c(-c4ccccc4)cc23)c1 ?
Reply text: 285 to 286 °C

Inquiry: Thanks! And COc1ccc(N=C(C#Cc2ccccc2)N2CCN(Cc3ccc(F)cc3)CC2)cc1 ?
Reply text: 98 °C

Inquiry: Thanks! And CC(C)COC(=O)Nc1ccc(C2=CCS(=O)CC2)c(F)c1 (stereo unspecified) ?
Reply text: 212 to 214 °C

====

Measured melting point values are reported for all entries that follow.

Cc1ccc(-c2nccc3c(CC#N)cccc23)cc1: 102 °C
CCC(Sc1ccc(CCC(=O)O)c(C)c1)c1ccc2nc(-c3ccc(C(F)(F)F)cc3)sc2c1 (stereo not given): 105 to 108 °C
O=C(O)CN1C(=O)COc2cc(F)c([N+](=O)[O-])cc21: 177 to 183 °C
CC(C)n1c(C=O)c(-c2ccc(F)cc2)c(-c2ccccc2)c1C(=O)NCc1ccc(F)cc1: 171 to 172 °C
O=C(O)c1cc(C(=O)O)cc(P(=O)(c2ccccc2)c2ccccc2)c1: 283 to 286 °C

Next molecule, melting point to be filled in.
Inquiry: Can you share its melting point? I mean this molecule: COC(=O)c1c(C)cc(OC)c(C)c1O
Reply text: 87 to 90 °C

====

Measured melting point values are reported for all entries that follow.

Reference set (3 entries):
C=C1c2cnccc2CC(=O)c2ccccc21: 98 to 110 °C
COc1ccc(-c2nc3cnc4ccccc4c3n2CC(C)C)cc1OC: 192 to 199 °C
CCOC(=O)c1ccc(/C=C(\C)C=O)s1: 98 °C

Next molecule, melting point to be filled in.
Inquiry: Can you share its melting point? I mean this molecule: CCn1c(=N)c(-c2cc(OC)cc(OC)c2)cc2cnc(SC)nc21
Reply text: 93 to 95 °C

====

measuredMetric: melting point

Reference set (4 entries):
CN1CCN(c2nc3sc4c(NCCCn5ccnc5)ncnc4c3c3c2COC(C)(C)C3)CC1: 227 °C
CN1CCC(C(=O)CCc2ccccc2O)CC1: 99 to 101 °C
O=S(=O)(c1ccccc1)c1ncc(C(F)(F)F)cc1F: 82 to 83 °C
CC(C)(C)CNc1cc(N2CCNCC2)nc(N2CCCC2)n1: 140 to 145 °C

Inquiry: Can you share its melting point? I mean this molecule: O=S(=O)(c1c(Br)c(Br)n(CCl)c1-c1ccc(Cl)cc1)C(F)(F)F
Reply text: 153 to 156 °C

Inquiry: Thanks! And O=C(O)c1sc(-c2cccnc2)nc1Cl ?
Reply text: 238 to 251 °C
